Test system: Pityrosporum ovale CBS 1878
Assay: Agar diffusion test for Pityrosporum ovale CBS 1878
Assay type: cell-based
Settings: Malassezia furfur, CBS1878, 168 h, 7 days at 27° C., read-out: MIC, A.D.T., Pityrosporum ovale
Experimental: Agar diffusion test for Pityrosporum ovale CBS 1878 Nutrient medium Littmann's agar, 23 ml per Petri dish, diameter of dish 100 mm. Suspension of microorganisms in 0.9% sodium chloride solution, standardized using a photometer according to Eppendorf by means of a suspension for comparison consisting of barium sulfate. […] The incubation time was 7 days at 27° C.; the area of inhibition in mm was measured, 0.05 ml of the solution of the substance were used for each punch-hole of a diameter of 6 mm. […]
parameter: MIC (µg/mL)

Tell me the measured MIC of CC1CCC(c2c(O)ccc(C(=O)C(F)(F)F)c2O)CC1 (centres unmarked) , please. 1000

(A) CC(C)Cc1c(O)ccc(C(=O)C(F)(F)F)c1O
(B) CCc1cc(C(=O)C(F)(F)F)c(O)cc1O [B, reference compound]
(C) Cc1c(O)ccc(C(=O)C(F)(F)C(F)(F)F)c1O
Sort entries by MIC from minimum to maximum value. List the labels according to the requested ordering. A, B, C
(A: 250 µg/mL, B: 1000 µg/mL, C: 4000 µg/mL)

----------
Test system: Streptococcus Aronson
Experiment: Serial dilution test
Format: cell-based
Settings: Streptococcus, 18-20 hours at 37° C., read-out: MIC, S.D.T., Streptococcus Aronson
parameter: MIC (µg/mL)

For the record CCCCCCc1cc(C(=O)C(F)(F)F)c(O)cc1O [Compound E] , what value of MIC is listed for Streptococcus Aronson? 0.31

(I) CC1CC(C)CC(c2cc(C(=O)C(F)(F)F)c(O)cc2O)C1 (stereo not drawn) [I]
(II) CCCCCCCCC(C)c1c(O)ccc(C(=O)C(F)(F)F)c1O (stereo not drawn) [M]
Larger number for MIC: I , or II ? Please indicate the selected item by its label. II

----------
Tested on: Streptococcus pyogenes At CC 86 68
Experiment: Agar diffusion test (hole-test)
Format: cell-based
Conditions: ATCC8668, 18-20 hours at 37° C., read-out: MIC, A.D.T., Streptococcus pyogenes
parameter: MIC (µg/mL)

For the record CC(C)c1c(O)ccc(C(=O)C(F)(F)F)c1O [P] , what value of MIC is listed for Streptococcus pyogenes At CC 86 68? 62.5

(P) O=C(c1ccc(O)c(C2CCCCCCCCCCC2)c1O)C(F)(F)F [L]
(Q) CCc1cc(C(=O)C(F)(F)F)c(O)cc1O [B, reference compound]
Larger number for MIC: P , or Q ? Please indicate the selected item by its label. Q

----------
Item-by-item account of MIC
Tested on: Streptococcus Aronson
Assay: Agar diffusion test (hole-test)
Type: cell-based
Conditions: 18-20 hours at 37° C., read-out: MIC, A.D.T., Streptococcus Aronson

Tell me the measured MIC of O=C(c1ccc(O)c(C2CCCCCC2)c1O)C(F)(F)F , please. ≤ 15.6 µg/mL

Tell me the measured MIC of CC1CCC(c2c(O)ccc(C(=O)C(F)(F)F)c2O)CC1 (stereo not drawn) , please. ≤ 15.6 µg/mL

Please turn your attention to the following entry.
Tell me the measured MIC of Cc1c(O)c(Cc2cc(C(=O)C(F)(F)F)c(O)c(C)c2O)cc(C(=O)C(F)(F)F)c1O , please. ≤ 15.6 µg/mL

----------
Item-by-item account of MIC
Test system: Streptococcus pyogenes At CC 86 68
Test: Agar diffusion test (hole-test)
Format: cell-based
Conditions: ATCC8668, 18-20 hours at 37° C., read-out: MIC, A.D.T., Streptococcus pyogenes

Sample answers from the record:
For the record CCCCCCCCC(C)c1c(O)ccc(C(=O)C(F)(F)F)c1O (stereo not drawn) [M] , what value of MIC is listed for Streptococcus pyogenes At CC 86 68? ≤ 15.6 µg/mL

For the record CCc1cc(C(=O)C(F)(F)F)c(O)c(Cc2c(O)c(CC)cc(C(=O)C(F)(F)F)c2O)c1O [R] , what value of MIC is listed for Streptococcus pyogenes At CC 86 68? ≤ 15.6 µg/mL

For the record CCCCCCc1cc(C(=O)C(F)(F)F)c(O)cc1O [Compound E] , what value of MIC is listed for Streptococcus pyogenes At CC 86 68? ≤ 15.6 µg/mL

For the record O=C(c1ccc(O)c(C2CCCC2)c1O)C(F)(F)F [N] , what value of MIC is listed for Streptococcus pyogenes At CC 86 68? 62.5 µg/mL

Further cases:
For the record CC1CCC(c2c(O)ccc(C(=O)C(F)(F)F)c2O)CC1 (stereo not drawn) [H] , what value of MIC is listed for Streptococcus pyogenes At CC 86 68? ≤ 15.6 µg/mL

For the record CCCCC(C)c1c(O)ccc(C(=O)C(F)(F)F)c1O (stereo not drawn) [K] , what value of MIC is listed for Streptococcus pyogenes At CC 86 68? ≤ 15.6 µg/mL
